FYI, the data here is from ChEMBL document CHEMBL4359816.

experimentalTarget: Isocitrate dehydrogenase [NADP] cytoplasmic (Homo sapiens, UniProt O75874, R132C)
Sequence (O75874 2-414 R132C limits assumed): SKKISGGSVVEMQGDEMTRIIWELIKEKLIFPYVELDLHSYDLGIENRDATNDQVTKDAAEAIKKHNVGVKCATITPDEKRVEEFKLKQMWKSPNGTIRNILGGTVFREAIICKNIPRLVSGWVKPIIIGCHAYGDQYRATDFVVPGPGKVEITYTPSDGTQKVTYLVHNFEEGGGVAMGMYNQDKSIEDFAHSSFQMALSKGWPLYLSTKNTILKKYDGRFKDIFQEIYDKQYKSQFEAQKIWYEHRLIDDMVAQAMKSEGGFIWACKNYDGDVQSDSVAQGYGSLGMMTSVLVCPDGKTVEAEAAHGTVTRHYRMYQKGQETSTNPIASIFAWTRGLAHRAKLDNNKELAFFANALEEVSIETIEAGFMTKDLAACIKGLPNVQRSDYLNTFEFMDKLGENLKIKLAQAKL
experimentalProtocol: Inhibition of human Myc-DDK-tagged IDH1 R132C mutant assessed as reduction in NADPH consumption pre-incubated for 15 mins followed by alpha-ketoglutarate substrate and NADPH addition after 45 mins by diaphorase and resazurin dye based assay
Lab note: cut-off is 300 nM. Strictly less in IC50 is TRUE. Exactly 300 nM or more is FALSE.

>  <chemSmiles>
COc1cc(NCc2cc3cc(Cl)c(OC[C@@H]4CCCN4C)cc3[nH]c2=O)ccc1C#N

>  <experimentalTarget>
Isocitrate dehydrogenase [NADP] cytoplasmic (Homo sapiens, UniProt O75874, R132C)

>  <className>
FALSE

$$$$

Shift focus to the following entry.
Ask: For `COc1cc(NCc2cc3cc(Cl)cc(OC)c3[nH]c2=O)ccc1C#N` , is the recorded IC50 below the cut-off of 300 nM?
Result: FALSE

---

experimentalTarget: CYP2C19 (Homo sapiens, UniProt P33261)
Sequence (P33261 whole entry): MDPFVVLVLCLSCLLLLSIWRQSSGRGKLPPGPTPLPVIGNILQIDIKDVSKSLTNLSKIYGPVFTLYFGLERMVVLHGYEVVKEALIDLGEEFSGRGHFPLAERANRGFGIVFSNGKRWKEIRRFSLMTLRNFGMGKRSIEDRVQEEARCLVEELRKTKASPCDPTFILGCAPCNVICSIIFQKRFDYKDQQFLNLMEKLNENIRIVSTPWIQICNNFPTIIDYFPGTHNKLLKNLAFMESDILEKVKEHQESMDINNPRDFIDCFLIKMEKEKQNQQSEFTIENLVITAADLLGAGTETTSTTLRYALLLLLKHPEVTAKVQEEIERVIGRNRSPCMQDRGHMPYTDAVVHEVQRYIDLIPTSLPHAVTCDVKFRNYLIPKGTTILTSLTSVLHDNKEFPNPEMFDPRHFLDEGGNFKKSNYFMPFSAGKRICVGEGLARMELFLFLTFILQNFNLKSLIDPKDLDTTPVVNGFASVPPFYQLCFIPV
experimentalProtocol: Inhibition of CYP2C19 (unknown origin) at 10 uM relative to control
Type: ADME
measuredProperty: inhibition at 10 µM (%)
Answers are plain numbers, in %.

Ask: Which value of inhibition at 10 µM has been reported for `COc1nc(N[C@@H](C)c2cc3cc(Cl)ccc3[nH]c2=O)ncc1C#N` in the records?
Result: 22.7

---

Exercise: state measured pIC50 for each of the molecules provided.
experimentalTarget: Isocitrate dehydrogenase [NADP] cytoplasmic (Homo sapiens, UniProt O75874, R132C)
experimentalProtocol: Inhibition of human Myc-DDK-tagged IDH1 R132C mutant expressed in human U87MG cells assessed as reduction in 2-HG levels after 24 hrs by RapidFire high-throughput mass spectrometry assay
Type: cell-based
One number for each entry, as −log10 of the molar value.

>  <chemSmiles>
COc1nc(N[C@@H](C)c2cc3cc(Cl)ccc3[nH]c2=O)ncc1C#N

>  <measuredValue>
6.89

$$$$
>  <chemSmiles>
Cc1nc(NCc2cc3cc(Cl)ccc3[nH]c2=O)ccc1C#N

>  <measuredValue>
6.59

$$$$
>  <chemSmiles>
COc1cc(NCc2cc3cc(Cl)ccc3[nH]c2=O)ccc1C#N

>  <measuredValue>
5.90

$$$$

Alright, here's another molecule for you.
Ask: Which value of pIC50 has been reported for `COc1cc2[nH]c(=O)c([C@H](C)Nc3ncc(C#N)c(OC)n3)cc2cc1Cl` in the records?
Result: 8.40

---

experimentalProtocol: Metabolic stability in mouse liver microsomes assessed as compound remaining after 30 mins
Format: ADME, Microsome
assayConditions: read-out: Stability
# label = bin(measured remaining at 0.5 h), where bins are zone 1: < 70%; zone 2: ≥ 70% and < 90%; zone 3: ≥ 90%

// below: answered compounds
>  <compound>
O=c1[nH]c2ccc(Cl)cc2cc1CNc1ccc(-n2ccnc2)cc1

>  <className>
zone 3

$$$$
>  <compound>
COc1cc(NCc2cc3cc(C)ccc3[nH]c2=O)ccc1-n1cnnn1

>  <className>
zone 1

$$$$
>  <compound>
Cc1nc(NC2(c3cc4cc(Cl)ccc4[nH]c3=O)CC2)ccc1C#N

>  <className>
zone 2

$$$$

Ask: Consider Cc1nc(NC(C)c2cc3cc(Cl)ccc3[nH]c2=O)ccc1C#N (racemic) . To which remaining at 0.5 h class does it belong?
Result: zone 3

Ask: Consider `COc1cc(NCc2cc3cc(Cl)ccc3[nH]c2=O)ccc1C#N` . To which remaining at 0.5 h class does it belong?
Result: zone 1

Ask: Consider `COc1cc(C#N)ccc1NCc1cc2cc(Cl)ccc2[nH]c1=O` . To which remaining at 0.5 h class does it belong?
Result: zone 1

Ask: Consider `Cc1nc(N[C@@H](C)c2cc3cc(Cl)ccc3[nH]c2=O)ccc1C#N` . To which remaining at 0.5 h class does it belong?
Result: zone 3

Ask: Consider `Cc1nnnn1-c1ccc(NCc2cc3cc(Cl)ccc3[nH]c2=O)cc1` . To which remaining at 0.5 h class does it belong?
Result: zone 2

---

experimentalProtocol: Clearance in rat at 1 mg/kg, iv or 5 mg/kg, po
Assay type: ADME, organism-based
assayConditions: in vivo
measuredProperty: clearance (mL/min/kg)
Answers are plain numbers, in mL/min/kg.

>  <chemSmiles>
COc1nc(N[C@@H](C)c2cc3cc(Cl)ccc3[nH]c2=O)ncc1C#N

>  <clearance / mL/min/kg>
8.6

$$$$

Alright, here's another compound for you.
Ask: Which value of clearance has been reported for `COc1cc2[nH]c(=O)c([C@H](C)Nc3ncc(C#N)c(OC)n3)cc2cc1Cl` in the records?
Result: 16.4

---

experimentalTarget: alpha1 adrenergic receptor (Homo sapiens, UniProt P35348)
Sequence (P35348 whole entry): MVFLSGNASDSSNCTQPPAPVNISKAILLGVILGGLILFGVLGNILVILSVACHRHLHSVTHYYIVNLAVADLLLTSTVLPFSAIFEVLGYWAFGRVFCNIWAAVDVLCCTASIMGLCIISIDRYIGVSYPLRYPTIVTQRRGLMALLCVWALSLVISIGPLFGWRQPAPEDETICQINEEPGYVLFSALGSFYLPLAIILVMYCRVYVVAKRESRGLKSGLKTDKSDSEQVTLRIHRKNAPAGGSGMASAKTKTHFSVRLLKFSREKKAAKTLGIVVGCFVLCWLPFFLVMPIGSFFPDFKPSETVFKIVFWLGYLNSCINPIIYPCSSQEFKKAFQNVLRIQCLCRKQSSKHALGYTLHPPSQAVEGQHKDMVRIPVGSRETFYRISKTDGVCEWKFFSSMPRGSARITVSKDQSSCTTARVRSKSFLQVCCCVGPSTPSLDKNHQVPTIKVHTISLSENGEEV
experimentalProtocol: Displacement of [3H] prazosin from human alpha1 adrenergic receptor at 1 uM measured after 60 mins by scintillation counting method relative to control
assayConditions: probe [3H] prazosin
measuredProperty: inhibition at 1 h, 1 µM

Ask: Which value of inhibition at 1 h, 1 µM has been reported for `COc1nc(N[C@@H](C)c2cc3cc(Cl)ccc3[nH]c2=O)ncc1C#N` in the records?
Result: > 50%

---

experimentalProtocol: Permeability of the compound by PAMPA
Assay type: ADME
assayConditions: read-out: permeability
measuredProperty: Papp

>  <chemSmiles>
COc1cc2[nH]c(=O)c([C@H](C)Nc3ncc(C#N)c(OC)n3)cc2cc1Cl

>  <Papp>
12.7 ×10⁻⁶ cm/s

$$$$

Ask: Which value of Papp has been reported for `COc1nc(N[C@@H](C)c2cc3cc(Cl)ccc3[nH]c2=O)ncc1C#N` in the records?
Result: 18 ×10⁻⁶ cm/s

---

Exercise: state measured pIC50 for each of the compounds provided.
experimentalTarget: Isocitrate dehydrogenase [NADP] cytoplasmic (Homo sapiens, UniProt O75874, R132C)
experimentalProtocol: Inhibition of human Myc-DDK-tagged IDH1 R132C mutant assessed as reduction in NADPH consumption pre-incubated for 15 mins followed by alpha-ketoglutarate substrate and NADPH addition after 45 mins by diaphorase and resazurin dye based assay
Answers are plain numbers, as −log10 of the molar value.

Take a look at these entries with their results.
>  <compound>
COc1nc(C#N)ccc1N[C@@H](C)c1cc2cc(Cl)ccc2[nH]c1=O

>  <pIC50>
5.99

$$$$
>  <compound>
COc1cc(NCc2cc3cc(Cl)c(OCCN(C)C)cc3[nH]c2=O)ccc1C#N

>  <pIC50>
5.20

$$$$
>  <compound>
COc1cc(NCc2cc3cc(Cl)c(OC4CCN(C)CC4)cc3[nH]c2=O)ccc1C#N

>  <pIC50>
5.29

$$$$
>  <compound>
COc1cc2[nH]c(=O)c(CNc3ccc(C#N)c(OC)c3)cc2cc1Cl

>  <pIC50>
6.18

$$$$
>  <compound>
COc1cc(N[C@@H](C)c2cc3cc(Cl)ccc3[nH]c2=O)ccc1C#N

>  <pIC50>
6.95

$$$$

Consider the following items and state reported pIC50 for each.
1. Cc1nc(NCc2cc3cc(Cl)ccc3[nH]c2=O)ccc1C#N
2. COc1cc(NCc2cc3cc(Cl)ccc3[nH]c2=O)ccc1C#N
3. COc1cc(NCc2cc3cc(Cl)c(OCC4CCCCN4C)cc3[nH]c2=O)ccc1C#N (stereo not given)
4. COc1cc2[nH]c(=O)c([C@H](C)Nc3ncc(C#N)c(OC)n3)cc2cc1Cl
5. Cc1nc(NC(C)c2cc3cc(Cl)ccc3[nH]c2=O)ccc1C#N (racemic)

Result:
1: 6.09; 2: 5.65; 3: 5.89; 4: 7.44; 5: 6.22

---

Exercise: state measured IC50 for each of the compounds provided.
experimentalTarget: Isocitrate dehydrogenase [NADP] cytoplasmic (Homo sapiens, UniProt O75874, R132C)
experimentalProtocol: Inhibition of human Myc-DDK-tagged IDH1 R132C mutant assessed as reduction in NADPH consumption pre-incubated for 15 mins followed by alpha-ketoglutarate substrate and NADPH addition after 45 mins by diaphorase and resazurin dye based assay
Numbers only, in nM.

Take a look at these entries with their results.
>  <chemSmiles>
COc1nc(N[C@@H](C)c2cc3cc(Cl)c(C4CC4)cc3[nH]c2=O)ncc1C#N

>  <readingUnit>
nM

>  <IC50>
305

$$$$
>  <chemSmiles>
COc1cc(NCc2cc3cc(Cl)cc(OCc4ccccn4)c3[nH]c2=O)ccc1C#N

>  <readingUnit>
nM

>  <IC50>
3480

$$$$
>  <chemSmiles>
COc1nc(N[C@@H](C)c2cc3cc(Cl)c(F)cc3[nH]c2=O)ncc1C#N

>  <readingUnit>
nM

>  <IC50>
184

$$$$

Consider the following items and state reported IC50 for each.
1. Cc1nc(N[C@@H](C)c2cc3cc(Cl)ccc3[nH]c2=O)ccc1C#N
2. COc1cc(NCc2cc3cc(Cl)c(OCCN4CCOCC4)cc3[nH]c2=O)ccc1C#N
3. COc1cc(NCc2cc3cc(Cl)c(OCCN4CCCC4=O)cc3[nH]c2=O)ccc1C#N
4. COc1nc(N[C@@H](C)c2cc3cc(Cl)c(OC(C)C)cc3[nH]c2=O)ncc1C#N
5. COc1nc(N[C@@H](C)c2cc3cc(Cl)ccc3[nH]c2=O)ncc1C#N

Result:
[183, 932, 2670, 26, 130]

Consider the following items and state reported IC50 for each.
1. COc1cc(NCc2cc3cc(Cl)cc(OCCN4CCOCC4)c3[nH]c2=O)ccc1C#N
2. COc1nc(N[C@@H](C)c2cc3cc(Cl)c(OCC4CC4)cc3[nH]c2=O)ncc1C#N
3. COc1nc(N[C@@H](C)c2cc3cc(Cl)ccc3[nH]c2=O)ccc1C#N

Result:
1. 3710
2. 53
3. 190
